Value source: PubChem BioAssay (NCI)

Tested on: SK-MEL-28 melanoma
Protocol notes: NCI-60 one-dose screen, 48 h
Condition set: 10 µM unless noted
Compounds without any hit were thinned out: in the full panel of roughly 83,000, 20% have a hit. Activity calls are given as the source filed them. How the source made its calls: active means growth percent below 10; inactive means the rest.
Could you please pick one outcome from this set? 1.0 for active, 0.0 for inactive

O=C1NC(=O)/C(=C/c2ccc3nccc(-c4ccncc4)c3c2)S1: 1.0
CN1CCN(c2ccc(C(=O)Nc3n[nH]c4ccc(Cc5cc(F)cc(F)c5)cc34)c(NC3CCOCC3)c2)CC1: 1.0

Task: Dear colleague, could you share the recorded outcome for O=C(Nc1cnn2ccc(N3CCC[C@@H]3c3cc(F)ccc3F)nc12)N1CC[C@H](O)C1 when you have a moment?
Result: 0.0

Task: Dear colleague, could you share the recorded outcome for COc1ccc(-n2c(=O)c3ccccc3n(Cc3ccc(C(=O)NO)cc3)c2=O)cc1 when you have a moment?
Result: 1.0

Task: Dear colleague, could you share the recorded outcome for C=CC(=O)N(C)[C@H]1C[C@H]2OC(C)(C1OC)n1c3ccccc3c3c4c(c5c6ccccc6n2c5c31)C(=O)NC4 (stereo not given in full) when you have a moment?
Result: 1.0

Task: Dear colleague, could you share the recorded outcome for O=C1CCC(=O)CC1 when you have a moment?
Result: 0.0

Task: Dear colleague, could you share the recorded outcome for Cc1ccc(-c2cc3c(SCC(=O)Nc4cc(C(F)(F)F)ccc4Cl)nccn3n2)cc1 when you have a moment?
Result: 0.0

Task: Dear colleague, could you share the recorded outcome for O=C(N/N=C/c1ccc(Cl)cc1)c1cc(-c2cc3ccccc3o2)nn1-c1ccccc1 when you have a moment?
Result: 0.0

Task: Dear colleague, could you share the recorded outcome for N#Cc1ccc(-n2nnc3ccccc32)cc1C#N when you have a moment?
Result: 0.0

Task: Dear colleague, could you share the recorded outcome for O=CC(OC(=O)c1ccccc1)C(OC(=O)c1ccccc1)C(COC(c1ccccc1)(c1ccccc1)c1ccccc1)OC(=O)c1ccccc1 (stereo not given) when you have a moment?
Result: 1.0
